Measured values drawn from PubChem BioAssay (NCI) for this set.

Tested on: SF-539 CNS
test summary: NCI tumour cell line growth inhibition, 48 h; in the data active = GI50 below about 0.43 µM; inactive = the rest
Outcomes: yes for active, no for inactive

{"columns": ["compound", "assigned label"],
 "data": [
  ["O=C(Nc1ccc(-n2cc(-c3ccncc3)c(-c3ccc(Cl)c(O)c3)n2)cc1)c1cc(Cl)cc(Cl)c1", "no"],
  ["O=[N+]([O-])c1ccc(N(CCO)CCO)c2c1no[n+]2[O-]", "no"],
  ["O=C1C(Nc2ccccn2)=C(I)C(=O)c2ncccc21", "no"],
  ["COc1cc2cc(C(=O)O)[nH]c2cc1OCc1ccccc1", "no"],
  ["N#CC1=C(N)Oc2c(sc3c(F)cccc23)C1c1ccc([N+](=O)[O-])cc1 (stereo not given)", "yes"]
]}

* * *

Tested on: CCRF-CEM leukemia
test summary: NCI tumour cell line growth inhibition, 48 h
endpoint name: GI50

{"columns": ["compound", "reported result"],
 "data": [
  ["NC1=C(c2nc(-c3cc4ccccc4oc3=O)cs2)C(c2ccco2)c2c(c3ccccc3oc2=O)O1 (stereo not drawn)", "53.8 µg/mL"],
  ["COc1ccc2[nH]cc(/C=C3\\C(=O)Nc4ccccc43)c2c1", "3.94 µM"],
  ["Cc1ccnc2c1NC(=O)c1cccnc1N2C1CC1", "> 100 µM"],
  ["O=C1Nc2ccccc2SC1C1SC(=S)N(Cc2ccccc2)C1=O (stereo not drawn)", "1.76 µM"],
  ["O=C1C(Nc2ccccn2)=C(I)C(=O)c2ncccc21", "0.552 µM"],
  ["NC(=O)c1c(OCc2c(F)cc(Br)cc2F)nsc1NC(=O)NCCCCN1CCCC1", "2.77 µM"],
  ["Nc1cc(C(F)F)c(-c2nc(N3[C@@H]4CC[C@H]3COC4)nc(N3[C@@H]4CC[C@H]3COC4)n2)cn1", "0.69 µM"],
  ["Clc1ccc2c(NCCCN3CCN(c4nc(-n5ccnc5)nc5ccccc45)CC3)ccnc2c1", "2.87 µM"]
]}

* * *

The following compounds are shown together with reported TGI values.
Tested on: EKVX NSCLC
test summary: NCI tumour cell line growth inhibition, 48 h

{"columns": ["compound", "TGI"],
 "data": [
  ["c1ccc(C2CC(N3CCOCC3)=Nc3ccccc3N2)cc1 (stereo not given)", "> 100 µM"],
  ["C=CC(=O)Nc1cc2c(Nc3ccc(OCc4ccccn4)c(Cl)c3)ncnc2cc1OCCN1CCOCC1", "> 73.2 µM"],
  ["CCOC(=O)Cn1nc2ccc(Nc3nc4ccccc4nc3C(=O)OCC)cc2n1", "> 100 µM"],
  ["C[C@]12CC[C@H]3[C@@H](C[C@@H]4SC(Nc5cccc(F)c5)=N[C@@]45CC(=O)CC[C@]35C)[C@@H]1CCC2=O", "18.5 µM"],
  ["O=[N+]([O-])C(=C1Nc2ccccc2N1)C(Cl)=C(Cl)Cl", "> 100 µM"],
  ["Cc1cc(NC(=O)CCc2ccc(N3C(N)=NC(N)=NC3(C)C)cc2)ccc1S(=O)(=O)F", "> 100 µM"],
  ["Cn1ncc2c(NCCc3ccccc3)nc(Cl)nc21", "23.3 µM"],
  ["Nc1nc(Cl)c2ncn(Cc3ccccc3CCl)c2n1", "31.1 µM"],
  ["CCCCCN(CCCCC)C(=O)[C@@H](CCC(=O)OCc1ccccc1)NC(=O)c1cc2ccccc2[nH]1", "> 100 µM"],
  ["CC(O[Si](C)(C)C(C)(C)C)[C@H](NC(=O)OCC(Cl)(Cl)Cl)C(=O)O (stereo not given in full)", "> 100 µM"]
]}
